B1: PRAME (parent)
chain: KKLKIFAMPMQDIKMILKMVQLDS

Variants of: B1
test.details: protein stability index of a GFP-peptide fusion (GPS, HEK-293T) (PSI 1-6); higher = more stable;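 note: lentivirally expressed fusions sorted by FACS into six bins by GFP to DsRed ratio, PSI derived from sequencing read proportions per bin multiplied by bin number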
condition: c terminus: a fixed tail appended
experimental.endpoint: protein stability index
One number for each entry.

Please review the entries below; each comes with its answer.
V20S | 2.01
Q21W | 1.98
M8A | 2.02
M15C | 2.02

In the following, a different variant is considered.
Task: // Input: L22K . Output its protein stability index only.
Result: 1.95
